Assay: Terminal plasma and brain concentrations in mice
Assay type: in vivo
Conditions: C57BL/6J, mouse, plasma, intraperitoneal, 1 mg/kg, 1 mg/kg IP, read-out: Terminal Plasma Conc (ng/mL) at 15 min, Mean
metric: concentration at 15 min (ng/mL)
Numbers only; they are read as ng/mL.

Problem: Which measured concentration at 15 min value corresponds to "COc1ccc(OC)c(CCNCc2cc(C)cc(F)c2)c1" ?
Result: 60.1

----------
Assay: Terminal plasma and brain concentrations in mice
Type: in vivo
Details: C57BL/6J, mouse, brain, intraperitoneal, 10 mg/kg, 10 mg/kg IP, read-out: Terminal Brain Total Concentration (uM) at 15 min, Mean
metric: concentration at 15 min (µM)
Numbers only; they are read as µM.

Problem: Which measured concentration at 15 min value corresponds to "COc1ccc(OC)c(CCNCc2cc(C)cc(F)c2)c1" ?
Result: 10.8
